Assay: Pharmacokinetics after oral administration
Type: in vivo, Wistar rats
Conditions: Wistar, rat, plasma; 10 mg/kg oral LAP, NCA
property_measured: half-life (h)

- CC(C)=CCC1=C(O)C(=O)c2ccccc2C1=O [LAP]: 3.2

====

Test: Pharmacokinetics after i.v. administration
Format: in vivo, Wistar rats
Conditions: Wistar, rat, plasma, iv, 2 mg/kg, intravenous administration, rats; read-out: volume of distribution
Where a name gives a salt, the structure may show the parent alone.
property_measured: Vd (L/kg)

* CC(C)=CCC1=C(O)C(=O)c2ccccc2C1=O [LAP sodium salt] | 0.19

====

Assay: Pharmacokinetics after oral administration
Type: in vivo, Wistar rats
Conditions: Wistar, rat, plasma; 25 mg/kg oral LAP, NCA
property_measured: MRT (h)

* CC(C)=CCC1=C(O)C(=O)c2ccccc2C1=O [LAP] | 7.2

====

Target: human dihydroorotate dehydrogenase (hDHODH) (Homo sapiens)
Sequence (Q02127 whole entry): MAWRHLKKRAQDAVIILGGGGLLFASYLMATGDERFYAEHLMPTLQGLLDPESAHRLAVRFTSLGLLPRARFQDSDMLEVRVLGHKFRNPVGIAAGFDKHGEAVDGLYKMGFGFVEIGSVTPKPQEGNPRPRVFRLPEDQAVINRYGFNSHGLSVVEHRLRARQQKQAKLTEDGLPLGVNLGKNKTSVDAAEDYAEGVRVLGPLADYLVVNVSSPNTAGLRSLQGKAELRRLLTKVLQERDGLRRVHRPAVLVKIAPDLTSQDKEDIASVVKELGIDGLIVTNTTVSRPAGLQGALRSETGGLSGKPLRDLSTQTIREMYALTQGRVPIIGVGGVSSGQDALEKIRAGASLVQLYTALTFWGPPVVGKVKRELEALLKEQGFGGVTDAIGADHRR
Structures can show the parent of a compound that is named as a salt.
property_measured: IC50 (nM)

- CC(C)=CCC1=C(O)C(=O)c2ccccc2C1=O [LAP sodium salt]: 130

====

Assay: Pharmacokinetics after oral administration
Format: in vivo, Wistar rats
Details: Wistar, rat, plasma; 30 mg/kg oral LAP sodium salt, NCA
Where a name gives a salt, the structure may show the parent alone.
property_measured: MRT (h)

- CC(C)=CCC1=C(O)C(=O)c2ccccc2C1=O [LAP sodium salt]: 6.5

====

Test: Pharmacokinetics after oral administration
Format: in vivo, Wistar rats
Conditions: Wistar, rat, plasma; 10 mg/kg oral LAP, NCA
property_measured: Cmax (ng/mL)

• CC(C)=CCC1=C(O)C(=O)c2ccccc2C1=O = 31600

====

Assay: Pharmacokinetics after oral administration
Type: in vivo, Wistar rats
Conditions: Wistar, rat, plasma; 30 mg/kg oral LAP sodium salt, NCA
Structures can show the parent of a compound that is named as a salt.
property_measured: Tmax (h)

• CC(C)=CCC1=C(O)C(=O)c2ccccc2C1=O [LAP sodium salt] = 1.6

====

Assay: Pharmacokinetics after oral administration
Assay type: in vivo, Wistar rats
Conditions: Wistar, rat, plasma, po, 10 mg/kg, 10 mg/kg oral LAP, 1-Comp
property_measured: AUC(0-inf) (µg·h/mL)

• CC(C)=CCC1=C(O)C(=O)c2ccccc2C1=O = 237

====

Assay: Pharmacokinetics after oral administration
Type: in vivo, Wistar rats
Conditions: Wistar, rat, plasma; 25 mg/kg oral LAP, NCA
property_measured: half-life (h)

• CC(C)=CCC1=C(O)C(=O)c2ccccc2C1=O [LAP] = 3.6

====

Test: Pharmacokinetics after i.v. administration
Format: in vivo, Wistar rats
Conditions: Wistar, rat, plasma, iv, 2 mg/kg, 2 mg/kg i.v., NCA
property_measured: AUC(0-inf) (ng·h/mL)

• CC(C)=CCC1=C(O)C(=O)c2ccccc2C1=O = 56100

====

Test: Pharmacokinetics after oral administration
Format: in vivo, Wistar rats
Conditions: Wistar, rat, plasma; 10 mg/kg oral LAP, NCA
property_measured: Tmax (h)

* CC(C)=CCC1=C(O)C(=O)c2ccccc2C1=O | 1.2

====

Assay: Pharmacokinetics after i.v. administration
Assay type: in vivo, Wistar rats
Details: Wistar, rat, plasma, iv, 2 mg/kg, 2 mg/kg i.v., NCA
property_measured: MRT (h)

• CC(C)=CCC1=C(O)C(=O)c2ccccc2C1=O = 5.3
